All values here come from paper PMC6791878.

measured-target: T1, Recombinant human integrin αvβ6 (human, UniProt P06756 31-1048; P18564 22-709)
T1 chain 1: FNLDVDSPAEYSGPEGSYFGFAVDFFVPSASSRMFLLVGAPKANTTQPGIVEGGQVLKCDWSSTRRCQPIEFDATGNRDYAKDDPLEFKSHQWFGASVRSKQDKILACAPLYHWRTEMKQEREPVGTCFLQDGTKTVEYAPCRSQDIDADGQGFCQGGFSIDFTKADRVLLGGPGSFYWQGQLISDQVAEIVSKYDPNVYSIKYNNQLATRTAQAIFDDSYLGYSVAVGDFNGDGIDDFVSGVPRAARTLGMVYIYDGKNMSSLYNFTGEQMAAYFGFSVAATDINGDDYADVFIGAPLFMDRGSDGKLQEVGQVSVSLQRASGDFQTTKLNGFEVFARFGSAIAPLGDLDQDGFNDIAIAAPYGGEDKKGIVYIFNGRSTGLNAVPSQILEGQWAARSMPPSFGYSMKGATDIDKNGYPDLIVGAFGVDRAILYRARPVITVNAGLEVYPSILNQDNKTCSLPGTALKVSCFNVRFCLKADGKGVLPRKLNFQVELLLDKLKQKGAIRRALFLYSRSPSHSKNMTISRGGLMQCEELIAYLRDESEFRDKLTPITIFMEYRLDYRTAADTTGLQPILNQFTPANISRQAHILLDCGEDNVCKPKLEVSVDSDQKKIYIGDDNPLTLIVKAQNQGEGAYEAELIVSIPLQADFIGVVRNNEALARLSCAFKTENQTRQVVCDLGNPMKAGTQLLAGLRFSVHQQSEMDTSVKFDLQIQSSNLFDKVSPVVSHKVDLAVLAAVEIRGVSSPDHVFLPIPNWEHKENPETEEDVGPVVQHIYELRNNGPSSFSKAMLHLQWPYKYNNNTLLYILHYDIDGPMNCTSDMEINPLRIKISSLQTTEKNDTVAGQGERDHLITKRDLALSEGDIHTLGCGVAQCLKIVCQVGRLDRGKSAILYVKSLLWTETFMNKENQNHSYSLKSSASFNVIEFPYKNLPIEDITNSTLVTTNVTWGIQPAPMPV
T1 chain 2: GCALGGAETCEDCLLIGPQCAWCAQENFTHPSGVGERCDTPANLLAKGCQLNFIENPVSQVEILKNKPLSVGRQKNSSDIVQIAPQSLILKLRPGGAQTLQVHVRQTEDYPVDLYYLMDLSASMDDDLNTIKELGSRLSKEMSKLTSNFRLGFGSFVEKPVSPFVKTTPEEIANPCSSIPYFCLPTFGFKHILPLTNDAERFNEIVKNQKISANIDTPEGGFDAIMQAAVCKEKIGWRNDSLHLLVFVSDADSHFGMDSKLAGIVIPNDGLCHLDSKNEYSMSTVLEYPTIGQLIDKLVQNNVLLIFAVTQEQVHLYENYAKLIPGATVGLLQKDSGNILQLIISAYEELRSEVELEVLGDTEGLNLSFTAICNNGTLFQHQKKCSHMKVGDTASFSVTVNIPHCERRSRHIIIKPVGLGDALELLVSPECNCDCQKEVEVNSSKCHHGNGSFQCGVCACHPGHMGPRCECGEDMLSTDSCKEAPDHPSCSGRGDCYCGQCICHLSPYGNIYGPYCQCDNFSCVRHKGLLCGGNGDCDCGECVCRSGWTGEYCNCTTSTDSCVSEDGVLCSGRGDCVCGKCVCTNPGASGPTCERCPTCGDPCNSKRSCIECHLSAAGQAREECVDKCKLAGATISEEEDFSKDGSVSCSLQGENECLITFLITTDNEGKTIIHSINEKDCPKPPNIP
assay-overview: FACS; competition with yeast-displayed R01-MG
Where no end group is shown, it is not given here.
Documented pIC50 across a set of binders
In plain terms, pIC50 is the concentration in mol/L turned into minus its base-10 logarithm.

binder	pIC50
GCILNGRTDLGTLLFRCRRDSDCPGACICRGNGYCG-NH2 (designed binder, disulfide (positions not given here)) [R01-MG synthetic cystine knot peptide (unlabeled precursor)]	9.42

Proceeding to the next binder to report its pIC50.
Recall and state the measured pIC50 for {(19F)fluoropropyl}-GCILNGRTDLGTLLFRCRRDSDCPGACICRGNGYCG (designed binder, disulfide (positions not given here); not fully specified (C-terminus)) [[^19F]FP-R01-MG-F2] .
9.33
